- Test system: MIA PaCa-2
- ASSAY EXPLANATION: Cytotoxicity against human MIA PaCa-2 cells assessed as inhibition of cell growth incubated for 7 days in glucose-containing medium by MTT assay
- Format: functional, cell-based
- CONDITION DESCRIPTION: MIA PaCa-2, 168 h
READOUT: pIC50
Please report pIC50 as the negative decimal logarithm of the molar concentration, giving only the number.

> print(dat)
                                        smi  numeric.result
1  CCN(CC)S(=O)(=O)c1ccc(S(=O)(=O)N2CCC[C@@H](C(=O)NC3CN(S(C)(=O)=O)C3)C2)cc1            5.60

Please tell me: pIC50 of "CCN(CC)S(=O)(=O)c1ccc(S(=O)(=O)N2CCC[C@@H](C(=O)N3CC4(CCN(C(=O)OC(C)(C)C)C4)C3)C2)cc1" , system MIA PaCa-2? 6.72

// map "CCN(CC)S(=O)(=O)c1ccc(S(=O)(=O)N2CCC[C@@H](C(=O)N3CCN(C(=O)OC(C)(C)C)CC3)C2)cc1" to recorded pIC50 (system: MIA PaCa-2) 7.15

Recorded pIC50 for "CCN(CC)C(=O)[C@@H]1CCCN(S(=O)(=O)c2ccc(S(=O)(=O)N(CC)CC)cc2)C1" with MIA PaCa-2, please? 5.19

# returns recorded pIC50 (system: MIA PaCa-2) for "CCOC(=O)C1CCN(S(=O)(=O)c2ccc(S(=O)(=O)N(CC)CC)cc2)CC1" 4.57

Item "CCNS(=O)(=O)c1ccc(S(=O)(=O)N2CCC[C@@H](C(=O)N3CCN(c4nc(C(C)C)no4)CC3)C2)cc1" with MIA PaCa-2 - pIC50? 5.48

For the record "CCN(CC)S(=O)(=O)c1ccc(S(=O)(=O)N2CCC[C@@H](C(=O)NC3CCN(C(=O)OC(C)(C)C)CC3)C2)cc1" , what value of pIC50 is listed for MIA PaCa-2? 7.00

Hi! What's the reported pIC50 for "CCOC(=O)[C@@H]1CCCN(S(=O)(=O)c2ccc(S(=O)(=O)N(CC)CC)c(F)c2)C1" on MIA PaCa-2? 6.05

====

- ASSAY EXPLANATION: Microsomal stability in human liver microsomes assessed as half life at 10 uM measured upto 60 mins by LC-MS/MS analysis
- Assay type: ADME, Microsome
- CONDITION DESCRIPTION: liver microsomes
READOUT: half-life at 10 µM

> print(dat)
                                        smi             readout  result
1  CC(C)c1noc(C2CCN(C(=O)[C@@H]3CCCN(S(=O)(=O)c4ccc(S(=O)(=O)C(C)C)cc4)C3)CC2)n1  half-life at 10 µM   > 1 h

Then this compound:
I am curious: what half-life at 10 µM value has been reported for "CC(C)c1noc(N2CCN(C(=O)[C@@H]3CCCN(S(=O)(=O)c4ccc(S(=O)(=O)C(C)C)cc4)C3)CC2)n1" ? > 1 h

====

- Tested on: MIA PaCa-2
- ASSAY EXPLANATION: Cytotoxicity against human MIA PaCa-2 cells assessed as inhibition of cell growth incubated for 3 days in glucose-containing medium by MTT assay
- Type: functional, cell-based
- CONDITION DESCRIPTION: MIA PaCa-2, 72 h
READOUT: IC50 (nM)
Give the number; nM is assumed, so skip it.

Known results for compounds:
> print(dat)
                                   compound  readout  numeric.result
1  CCN(CC)S(=O)(=O)c1ccc(S(=O)(=O)N2CCC[C@@H](C(=O)N3CCN(c4nc(C)no4)CC3)C2)cc1     IC50             200
2  CC(C)c1noc(N2CCN(C(=O)[C@@H]3CCCN(S(=O)(=O)c4ccc(S(=O)(=O)NC5CCC5)cc4)C3)CC2)n1     IC50             200
3  CCOC(=O)[C@@H]1CCCN(S(=O)(=O)c2ccc(S(=O)(=O)N(CC)CC)c(F)c2)C1     IC50             200
4  CCOC(=O)[C@@H]1C[C@@H](O)CN(S(=O)(=O)c2ccc(S(=O)(=O)N(CC)CC)cc2)C1 (relative stereo)     IC50            2100
5  CCOC(=O)[C@@H]1CCC[C@@H](S(=O)(=O)c2ccc(S(=O)(=O)N(CC)CC)cc2)C1 (relative stereo)     IC50            5000

Dear colleague, I am looking for the recorded IC50 of the following compound: "CCOC(=O)[C@@H]1CCCN(S(=O)(=O)c2ccc(S(=O)(=O)N(CC)CC)nc2)C1" 1600
